- study-system: T1, cyno primate IL-17A (cyno primate, UniProt A0A2K5TTB0 24-155)
- T1 construct: Antigen of the primate crossreactivity ELISA; construct not described; also called Cy IL-17
- T1 sequence (A0A2K5TTB0 entry or part of it): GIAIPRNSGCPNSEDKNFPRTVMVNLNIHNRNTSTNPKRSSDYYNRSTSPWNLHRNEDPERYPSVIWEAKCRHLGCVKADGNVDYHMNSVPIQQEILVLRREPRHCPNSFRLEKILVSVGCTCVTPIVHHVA
- measurement-description: ELISA, binding to cyno IL-17A
Recorded EC50, one value per entry.
endpoint-label: EC50 (pM)

* 8A5G4 (antibody, V domains shown, amino acids 1-19 are stated as the leader; also called A2) VH: QVELKESGPGLVAPSQSLSITCTVSGFSLTSYGVYWVRQPPGKGLEWLVVIWSDGTTTYNSALKSRLSISKDNSKSQVFLKMNSLQTDDTAMYYCARQGDNYSYAVDYWGQGTAVTVSS VL: DVVMIQIPLSLPVSLGDQASISCRSSQSLVHSNGNTYLHWYLQKPGQSPKLLIYKVFNRFSGVPDRFSGSGSGTDFTLKISRVEAEDLGVYFCSQSTHAPLTFGAGTKLELK | 8
* 24F11E4 (antibody, mouse IgG1, V domains shown, amino acids 1-19 are stated as the leader; also called A5) VH: QVQLQQPGAELVMPGASVRLSCKASGYTFTNYWIHWVKQRPGQGLEWIGEIDPSDTFTNYSPKFKGKATLTVDKSSSTAYMQLTGLTSEDSAVYFCARSGIYYDYYEDYWGQGTTLTVSS VL: DVVMTQTPLSLPVSLGDQVSISCRSSQILLHSNGNTYLHWYLQKPGQSPKLLIYKVSNRFSGVPDRFSGSGSGTDFTLKISRVEADDLGVYFCSQSVHVPTFGGGTKLEIK | 10
* 4H11C7 (antibody, mouse IgG1, V domains shown, amino acids 1-19 are stated as the leader; also called A1) VH: QVTLKESGPGILQPSQTLSLTCSFSGFSLNTFGMGVDWIRQPSGKGLEWLAHIWWDDDKYYNPALESRLTISKDASKNQVFLKIANVDTADTATYYCSRRELGPYFFDYWGQGTTLTVSS VL: GVLMTQTPLSLPVSLGDQASISCRSSQSIVHSNGNTYLEWYLQKPGQSPKLLIYKVSNRFSGVPDRFSGSGSGTDFTLKINRVEAEDLGVYYCFQGSHFPYTFGGGTKLEID | 16

src = patent US20210079087A1
